# Test Target: human glycolate oxidase (hGO) (Homo sapiens, UniProt Q9UJM8)
# Construct: His-tag (6 histidines, pET-15b) (N); made in house; host or cells: E. coli BL21 (DE3)
# Sequence (Q9UJM8 1-370): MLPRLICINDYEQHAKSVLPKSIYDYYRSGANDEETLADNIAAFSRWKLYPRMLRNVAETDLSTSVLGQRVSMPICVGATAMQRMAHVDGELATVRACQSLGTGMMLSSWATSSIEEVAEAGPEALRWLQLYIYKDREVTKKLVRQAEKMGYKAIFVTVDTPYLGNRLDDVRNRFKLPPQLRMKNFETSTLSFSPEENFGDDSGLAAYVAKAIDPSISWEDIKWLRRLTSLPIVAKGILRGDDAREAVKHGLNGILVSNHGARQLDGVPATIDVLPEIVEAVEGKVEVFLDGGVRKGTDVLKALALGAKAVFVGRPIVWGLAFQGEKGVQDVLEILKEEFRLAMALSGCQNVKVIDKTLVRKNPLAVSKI
# Assay Method Text: In vitro inhibition of human glycolate oxidase (enzymatic assay, HRP-coupled Trinder reaction);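 also: values are IC50 potency bins despite the % Inhibition label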
# Type: biochemical
# Condition Summary: recombinant hGO, 40 mM glycolic acid, pH 7, read at 515 nm, 1 minute after initiation of Trinder reaction; read-out: % Inhibition
pIC50: −log10 of the molar value.
Observable: pIC50

For orientation, consider the following solved cases.
CC(=O)N1CCN(c2ccc(Oc3[nH]nnc3C(=O)O)cc2)CC1    < 6.70
O=C(O)c1nn[nH]c1Oc1ccc(C2CCC(F)(F)C2)cc1 (centres unmarked)    6.70 to 7.00
Cc1ncc(-c2ccc(Oc3[nH]nnc3C(=O)O)cc2)cn1    > 7.00

Data request: Give the measured pIC50 of "O=C(O)c1nn[nH]c1Oc1ccc(-c2ccncc2)cc1" .
Data returned: > 7.00

Data request: For "O=C(O)c1nn[nH]c1Oc1cccnc1Br" then?
Data returned: < 6.70

----------
# Test Target: human glycolate oxidase (hGO) (Homo sapiens)
# Construct: His-tag (6 histidines, pET-15b) (N); made in house; host or cells: E. coli BL21 (DE3)
# Sequence (Q9UJM8 1-370): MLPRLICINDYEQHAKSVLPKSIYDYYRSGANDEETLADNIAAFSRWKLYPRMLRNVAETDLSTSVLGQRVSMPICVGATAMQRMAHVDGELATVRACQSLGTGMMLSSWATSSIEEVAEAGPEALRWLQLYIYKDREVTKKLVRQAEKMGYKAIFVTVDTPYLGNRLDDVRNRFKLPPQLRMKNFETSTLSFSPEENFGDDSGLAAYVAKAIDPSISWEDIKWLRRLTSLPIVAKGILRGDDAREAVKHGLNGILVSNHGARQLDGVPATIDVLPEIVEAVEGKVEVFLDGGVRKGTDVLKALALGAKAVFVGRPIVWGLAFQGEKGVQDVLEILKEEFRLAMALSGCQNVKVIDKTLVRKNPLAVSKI
# Assay Method Text: In vitro inhibition of human glycolate oxidase (enzymatic assay, HRP-coupled Trinder reaction);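 also: values are IC50 potency bins despite the % Inhibition label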
# Type: biochemical
# Condition Summary: recombinant hGO, 40 mM glycolic acid, pH 7, read at 515 nm, 1 minute after initiation of Trinder reaction; read-out: % Inhibition
pIC50: −log10 of the molar value.
Form field: pIC50 (one value per entry).

For orientation, consider the following solved cases.
N#Cc1ccc(-c2ccc(Oc3[nH]nnc3C(=O)O)cn2)cc1    > 7.00
O=C(O)c1nn[nH]c1Oc1ccc(-c2cccc(C(F)(F)F)c2)cc1    6.70 to 7.00

Data request: Give the measured pIC50 of "O=C(O)c1nn[nH]c1Oc1cccc(-c2cccnc2F)c1" .
Data returned: > 7.00

Data request: For "O=C(O)c1nn[nH]c1Oc1ccc(Br)c(Cl)c1" then?
Data returned: > 7.00

Data request: For "O=C(O)c1nn[nH]c1Oc1ccc(-c2cnccn2)cc1" then?
Data returned: > 7.00

Data request: For "O=C(O)c1nn[nH]c1Oc1ccc(-c2cccc(F)c2F)cc1" then?
Data returned: 6.70 to 7.00

Data request: For "NC(=O)c1ccc(-c2cccc(Oc3[nH]nnc3C(=O)O)c2)cc1" then?
Data returned: 6.70 to 7.00

----------
Form field: IC50 (one value per entry).
# Test Target: human glycolate oxidase (hGO) (Homo sapiens, UniProt Q9UJM8)
# Construct: His-tag (6 histidines, pET-15b) (N); made in house; host or cells: E. coli BL21 (DE3)
# Assay Method Text: In vitro inhibition of human glycolate oxidase (enzymatic assay, HRP-coupled Trinder reaction);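 also: values are IC50 potency bins despite the % Inhibition label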
# Assay type: biochemical
# Condition Summary: recombinant hGO, 40 mM glycolic acid, pH 7, read at 515 nm, 1 minute after initiation of Trinder reaction; read-out: % Inhibition
Counter-ions that a name gives are not always drawn.

For orientation, consider the following solved cases.
O=C(O)c1nn[nH]c1Oc1ccc(C(F)(F)F)cc1    < 100 nM
CC(C)(C)c1ccc(-c2ccc(Oc3[nH]nnc3C(=O)O)c(F)c2)cc1    100 to 200 nM
N#Cc1ccc(-c2ccc(Oc3nn[nH]c3C(=O)O)cc2)cc1    100 to 200 nM
O=C(O)c1nn[nH]c1Oc1ccc(-c2ccnc3ccccc23)cc1    < 100 nM
CN(C)c1cccc(Oc2[nH]nnc2C(=O)O)c1    < 100 nM

Data request: Record lookup: for human glycolate oxidase (hGO) (Homo sapiens, UniProt Q9UJM8), what IC50 belongs to "O=C(O)c1nn[nH]c1Sc1ccc(F)cc1" ?
Data returned: 100 to 200 nM

Data request: For O=C(O)c1nn[nH]c1Oc1ccc(F)cc1 [Example 9, Sodium Salt] then?
Data returned: > 200 nM

Data request: For "O=C(O)c1nn[nH]c1Oc1ccc(-c2cccc3ccccc23)cc1" then?
Data returned: < 100 nM
